FYI, the data here is from paper PMC11784839.

Biological target: tau (Homo sapiens, UniProt P10636)
Sequence (P10636 623-695 limits assumed): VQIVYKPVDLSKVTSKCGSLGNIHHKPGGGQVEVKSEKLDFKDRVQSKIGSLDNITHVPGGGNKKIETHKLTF
Assay: MCE Phenols Library screening, tau biosensor cell seeding assay (AvZ)
Type: cell-based
Conditions: puncta, replicate 2
Here, each record is paired with measured raw data 2 data.
Output: the number by itself.

Consider the reported raw data 2 for these compounds:
{"columns": ["compound", "recorded_number"],
 "data": [
  ["Cc1cc(=O)oc2cc(O)ccc12 [4-Methylumbelliferone]", 8717.47],
  ["C[C@@H]1O[C@@H](Oc2cc(O)c3c(=O)c(O)c(-c4ccc(O)cc4)oc3c2O)[C@H](O)[C@H](O)[C@H]1O [Rhodionin]", 1171.9],
  ["Cc1c(O)c(C)c2c(c1O)C(=O)C[C@@H](c1ccc(O)cc1)O2 [Farrerol]", 4584.63]
]}

Pending compound:
raw data 2 measured on O=C(O[C@@H]1O[C@@H]2COC(=O)c3cc(O)c(O)c(O)c3-c3c(cc(O)c(O)c3O)C(=O)O[C@H]([C@H]1O)[C@@H]2O)c1cc(O)c(O)c(O)c1 [Corilagin] = 650.661
